# assay.target: human Y2 receptor (human) (UniProt P49146)
# Sequence (P49146 whole entry): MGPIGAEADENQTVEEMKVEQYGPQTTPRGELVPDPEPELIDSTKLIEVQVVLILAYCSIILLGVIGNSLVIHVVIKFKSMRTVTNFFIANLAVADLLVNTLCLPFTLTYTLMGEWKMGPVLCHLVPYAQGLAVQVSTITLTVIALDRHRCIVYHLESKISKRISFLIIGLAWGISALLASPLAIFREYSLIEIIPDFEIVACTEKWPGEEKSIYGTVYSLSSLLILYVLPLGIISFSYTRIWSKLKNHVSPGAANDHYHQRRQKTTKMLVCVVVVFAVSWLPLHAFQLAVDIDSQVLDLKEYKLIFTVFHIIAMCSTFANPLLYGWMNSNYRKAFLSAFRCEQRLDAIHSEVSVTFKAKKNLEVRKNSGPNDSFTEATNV
# procedure.text: cell-based or functional assay
Non-standard residues stand in square brackets, D forms with d. dHyp = O=C(O)[C@H]1C[C@H](O)CN1; Cha = N[C@@H](CC1CCCCC1)C(=O)O; Aib = CC(C)(N)C(=O)O
assay.metric: GBA EC50 Ratio (vs PYY(3-36)), [35S]GTPγS
Form: value (number only, do not type unit).

Recorded GBA EC50 Ratio (vs PYY(3-36)), [35S]GTPγS for Ac-S[dHyp]RH[Cha][Cha]NL[Aib]TRQR[Cha]-NH2 (SMILES CC(=O)N[C@@H](CO)C(=O)N1C[C@@H](O)C[C@@H]1C(=O)N[C@@H](CCCNC(=N)N)C(=O)N[C@@H](Cc1c[nH]cn1)C(=O)N[C@@H](CC1CCCCC1)C(=O)N[C@@H](CC1CCCCC1)C(=O)N[C@@H](CC(N)=O)C(=O)N[C@@H](CC(C)C)C(=O)NC(C)(C)C(=O)N[C@H](C(=O)N[C@@H](CCCNC(=N)N)C(=O)N[C@@H](CCC(N)=O)C(=O)N[C@@H](CCCNC(=N)N)C(=O)N[C@@H](CC1CCCCC1)C(N)=O)[C@@H](C)O) [Ac-[D-Hyp24, Cha27,28,36, Aib31]-PYY(23-36)] , please?
0.9
